Below, each entry is listed with its recorded binding signal.
- Assayed Target: POU1 (OCT1 POU domain) (human, UniProt P14859 260-458)
- Sequence (P14859 260-458): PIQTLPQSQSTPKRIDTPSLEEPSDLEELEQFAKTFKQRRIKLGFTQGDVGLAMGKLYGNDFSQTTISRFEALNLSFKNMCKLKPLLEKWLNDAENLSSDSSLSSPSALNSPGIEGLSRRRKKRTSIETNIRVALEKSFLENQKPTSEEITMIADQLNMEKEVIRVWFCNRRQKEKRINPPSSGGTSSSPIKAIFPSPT
- Test Description: EMSA-SELEX-seq; no BOB1; 20 mM Tris-HCl pH 7.6, 140 mM NaCl, 10% glycerol, 0.5 mM EDTA, 0.05% Triton X-100, 0.1 mg/mL BSA, 0.1 mg/mL poly(dI-dC), 5 mM DTT, room temperature, 20 min; high values mean tight binding
- Run Parameters: protein: recombinant; dsDNA, one strand shown

Use these answered entries as a reference point.
INSERT INTO results (item_sequence, assayed_target, test_result) VALUES
  ('AGTCTAAT', 'POU1 (OCT1 POU domain) (human, UniProt P14859 260-458)', '0.147 % of ANNNNAAN 8-mers'),
  ('AGCTGAAA', 'POU1 (OCT1 POU domain) (human, UniProt P14859 260-458)', '0.0267 % of ANNNNAAN 8-mers'),
  ('ACTTTAAT', 'POU1 (OCT1 POU domain) (human, UniProt P14859 260-458)', '0.0824 % of ANNNNAAN 8-mers'),
  ('AATCCAAG', 'POU1 (OCT1 POU domain) (human, UniProt P14859 260-458)', '0.0324 % of ANNNNAAN 8-mers'),
  ('AGCAAAAA', 'POU1 (OCT1 POU domain) (human, UniProt P14859 260-458)', '0.0831 % of ANNNNAAN 8-mers');

Report binding signal for AAATAAAA please.
0.177 % of ANNNNAAN 8-mers

Again, but for ACAGTAAT
0.0614 % of ANNNNAAN 8-mers

Again, but for ATCGAAAT
0.0694 % of ANNNNAAN 8-mers

Again, but for AACTGAAA
0.0358 % of ANNNNAAN 8-mers

Again, but for ACTCGAAA
0.0271 % of ANNNNAAN 8-mers

Again, but for ACCCGAAA
0.0172 % of ANNNNAAN 8-mers

Again, but for AATCAAAC
0.0526 % of ANNNNAAN 8-mers

###

- Assayed Target: POU2 (OCT2 POU domain);BOB1 (OBF1, OCA-B) (human;human, UniProt P09086;Q16633 175-386;1-256, |)
- Sequence 1: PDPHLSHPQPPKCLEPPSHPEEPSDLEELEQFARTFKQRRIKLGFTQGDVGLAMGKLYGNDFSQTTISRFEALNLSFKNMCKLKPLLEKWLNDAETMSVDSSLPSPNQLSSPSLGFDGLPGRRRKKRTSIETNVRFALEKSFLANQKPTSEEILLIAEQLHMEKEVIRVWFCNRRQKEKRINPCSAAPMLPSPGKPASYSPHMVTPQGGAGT
- Sequence 2: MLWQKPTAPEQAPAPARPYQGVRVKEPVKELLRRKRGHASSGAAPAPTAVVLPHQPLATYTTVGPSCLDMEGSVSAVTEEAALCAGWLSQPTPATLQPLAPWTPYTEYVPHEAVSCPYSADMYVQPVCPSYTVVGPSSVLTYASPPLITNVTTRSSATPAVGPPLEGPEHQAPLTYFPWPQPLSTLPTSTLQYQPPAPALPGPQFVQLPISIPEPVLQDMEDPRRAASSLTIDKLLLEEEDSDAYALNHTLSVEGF
- Test Description: EMSA-SELEX-seq; with BOB1 (ternary complex band); 20 mM Tris-HCl pH 7.6, 140 mM NaCl, 10% glycerol, 0.5 mM EDTA, 0.05% Triton X-100, 0.1 mg/mL BSA, 0.1 mg/mL poly(dI-dC), 5 mM DTT, room temperature, 20 min; high values mean tight binding
- Run Parameters: protein: recombinant;recombinant; copies: 1;1; dsDNA, one strand shown
Readout: binding signal

Use these answered entries as a reference point.
INSERT INTO assay_data (item_sequence, test_result) VALUES
  ('AAGCCAAG', '0.019 % of ANNNNAAN 8-mers'),
  ('ATTACAAT', '0.0966 % of ANNNNAAN 8-mers'),
  ('AAAAGAAG', '0.071 % of ANNNNAAN 8-mers'),
  ('ACTTCAAT', '0.0446 % of ANNNNAAN 8-mers');

Report binding signal for AATCCAAA please.
0.0371 % of ANNNNAAN 8-mers

Again, but for AATGCAAG
0.0644 % of ANNNNAAN 8-mers

Again, but for AATCGAAA
0.0438 % of ANNNNAAN 8-mers

Again, but for ACGATAAC
0.0264 % of ANNNNAAN 8-mers

Again, but for AGTAGAAA
0.052 % of ANNNNAAN 8-mers

###

Below, each entry is listed with its recorded binding signal.
- Assayed Target: POU2 (OCT2 POU domain) (human, UniProt P09086 175-386)
- Sequence: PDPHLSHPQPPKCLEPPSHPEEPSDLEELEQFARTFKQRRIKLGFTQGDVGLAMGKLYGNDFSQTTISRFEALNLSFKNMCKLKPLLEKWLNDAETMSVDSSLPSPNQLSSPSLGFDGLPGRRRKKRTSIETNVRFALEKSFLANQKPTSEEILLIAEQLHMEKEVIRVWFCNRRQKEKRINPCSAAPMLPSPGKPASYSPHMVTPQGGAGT
- Test Description: EMSA-SELEX-seq; no BOB1; 20 mM Tris-HCl pH 7.6, 140 mM NaCl, 10% glycerol, 0.5 mM EDTA, 0.05% Triton X-100, 0.1 mg/mL BSA, 0.1 mg/mL poly(dI-dC), 5 mM DTT, room temperature, 20 min; high values mean tight binding
- Run Parameters: protein: recombinant; dsDNA, one strand shown

Use these answered entries as a reference point.
INSERT INTO assay_data (item_sequence, test_result) VALUES
  ('ACGTAAAT', '0.172 % of ANNNNAAN 8-mers'),
  ('AACCGAAA', '0.0293 % of ANNNNAAN 8-mers'),
  ('ATCACAAA', '0.0374 % of ANNNNAAN 8-mers'),
  ('ATAAGAAA', '0.0955 % of ANNNNAAN 8-mers'),
  ('AAATAAAT', '0.275 % of ANNNNAAN 8-mers'),
  ('AAGCAAAT', '0.27 % of ANNNNAAN 8-mers'),
  ('AACCAAAT', '0.121 % of ANNNNAAN 8-mers'),
  ('ACTTAAAA', '0.0524 % of ANNNNAAN 8-mers'),
  ('AGACGAAA', '0.0472 % of ANNNNAAN 8-mers'),
  ('ACATAAAG', '0.108 % of ANNNNAAN 8-mers');

Report binding signal for ATTCCAAC please.
0.0432 % of ANNNNAAN 8-mers

Again, but for AAGAAAAA
0.0921 % of ANNNNAAN 8-mers

###

- Assayed Target: POU1 (OCT1 POU domain);BOB1 (OBF1, OCA-B) (human;human, UniProt P14859;Q16633 260-458;1-256, |)
- Sequence (P14859 260-458, one chain of several): as the sequence (P14859 260-458) above
- Test Description: EMSA-SELEX-seq; with BOB1 (ternary complex band); 20 mM Tris-HCl pH 7.6, 140 mM NaCl, 10% glycerol, 0.5 mM EDTA, 0.05% Triton X-100, 0.1 mg/mL BSA, 0.1 mg/mL poly(dI-dC), 5 mM DTT, room temperature, 20 min; high values mean tight binding
- Run Parameters: protein: recombinant;recombinant; copies: 1;1; dsDNA, one strand shown
Below, each entry is listed with its recorded binding signal.

INSERT INTO results (item_sequence, readout, test_result) VALUES
  ('AGGACAAA', 'binding signal', '0.0453 % of ANNNNAAN 8-mers');

Report binding signal for AGTCGAAC please.
0.0199 % of ANNNNAAN 8-mers

Again, but for ACACGAAC
0.0121 % of ANNNNAAN 8-mers

Again, but for ACTAAAAT
0.0663 % of ANNNNAAN 8-mers

Again, but for ATAGTAAT
0.0702 % of ANNNNAAN 8-mers

Again, but for AAACTAAG
0.0636 % of ANNNNAAN 8-mers

Again, but for AGGTCAAG
0.0277 % of ANNNNAAN 8-mers

Again, but for AGACAAAC
0.0414 % of ANNNNAAN 8-mers

###

Below, each entry is listed with its recorded binding signal.
- Assayed Target: POU1 (OCT1 POU domain);BOB1 (OBF1, OCA-B) (human;human, UniProt P14859;Q16633 260-458;1-256, |)
- Test Description: EMSA-SELEX-seq; with BOB1 (ternary complex band); 20 mM Tris-HCl pH 7.6, 140 mM NaCl, 10% glycerol, 0.5 mM EDTA, 0.05% Triton X-100, 0.1 mg/mL BSA, 0.1 mg/mL poly(dI-dC), 5 mM DTT, room temperature, 20 min; high values mean tight binding
- Run Parameters: protein: recombinant;recombinant; copies: 1;1; dsDNA, one strand shown

Use these answered entries as a reference point.
INSERT INTO assay_data (item_sequence, test_result) VALUES
  ('ACCCAAAA', '0.0246 % of ANNNNAAN 8-mers'),
  ('ATCCAAAT', '0.209 % of ANNNNAAN 8-mers'),
  ('AACGTAAG', '0.0336 % of ANNNNAAN 8-mers'),
  ('AAGACAAT', '0.0382 % of ANNNNAAN 8-mers'),
  ('ATATAAAT', '0.108 % of ANNNNAAN 8-mers'),
  ('ATAGTAAA', '0.128 % of ANNNNAAN 8-mers');

Report binding signal for AACAGAAA please.
0.0355 % of ANNNNAAN 8-mers

Again, but for ATCTAAAG
0.0503 % of ANNNNAAN 8-mers

Again, but for ACTCAAAT
0.127 % of ANNNNAAN 8-mers

Again, but for AACGCAAT
0.0242 % of ANNNNAAN 8-mers

Again, but for ATTTGAAC
0.0745 % of ANNNNAAN 8-mers
